Test system: breast cancer cell line MX-1
test_method_notes: MX-1 cell line proliferation assay, Method B
Format: cell-based
condition: Homo sapiens, MX1; MX-1 cells, 384-well, 72 hours, Cell Titer Glo; read-out: Cellular proliferation: EC50 Method B
value_type: pEC50
The meaning of pEC50 here: minus log10 of the concentration in molar units.

Below are worked cases with known answers.
{"smi": "Cn1cc(-c2cc(S(C)(=O)=O)ccc2Oc2ccc(F)cc2F)c2cc(CNCCC(N)=O)[nH]c2c1=O", "measured_target": "breast cancer cell line MX-1", "pEC50": 6.22}
{"smi": "Cn1cc(-c2cc(S(C)(=O)=O)ccc2Oc2ccc(F)cc2F)c2cc(CN3CC(n4cncn4)C3)[nH]c2c1=O", "measured_target": "breast cancer cell line MX-1", "pEC50": 6.48}

Now for another entry.
*Q* Which pEC50 reading was recorded for the compound `Cc1cccc(C)c1Oc1ccc(S(C)(=O)=O)cc1-c1cn(C)c(=O)c2[nH]c(-c3nc(-c4cnccn4)no3)cc12` ?
*A* 6.31

----------
Tested on: breast cancer cell line MX-1
test_method_notes: MX-1 cell line proliferation assay, Method B
Assay type: cell-based
condition: Homo sapiens, MX1; MX-1 cells, 384-well, 72 hours, Cell Titer Glo; read-out: Cellular proliferation: EC50 Method B
Measured pEC50 of individual entries
The meaning of pEC50 here: minus log10 of the concentration in molar units.

{"compound": "CCNC(=O)c1cc2c(-c3cc(S(=O)(=O)CC)ccc3Oc3c(C)cccc3CN3CCCCC3)cn(C)c(=O)c2[nH]1 [Example 147]", "pEC50": 5.20}
{"compound": "CCNC(=O)/C=C/c1cc2c(-c3cc(S(=O)(=O)CC)ccc3Oc3c(C)cccc3C)cn(C)c(=O)c2[nH]1 [Example 134]", "pEC50": 6.62}
{"compound": "CCNC(=O)c1cc2c(-c3cc(S(=O)(=O)CC)ccc3Oc3c(C)cccc3CN3CCOCC3)cn(C)c(=O)c2[nH]1 [Example 146]", "pEC50": 5.03}

Now for another entry.
*Q* Which pEC50 reading was recorded for the compound Cn1cc(-c2cc(S(C)(=O)=O)ccc2Oc2ccc(F)cc2F)c2cc(CN3CCN(c4ccccn4)CC3)[nH]c2c1=O [Example 132] ?
*A* 6.19

----------
Measured EC50 of individual entries
System: breast cancer cell line MX-1
test_method_notes: MX-1 cell line proliferation assay, Method B
Format: cell-based
condition: Homo sapiens, MX1; MX-1 cells, 384-well, 72 hours, Cell Titer Glo; read-out: Cellular proliferation: EC50 Method B
Write the value in nM as a bare number.

Below are worked cases with known answers.
{"compound": "CCNC(=O)c1cc2c(-c3cc(S(=O)(=O)CC)ccc3Oc3c(C)cccc3CN3CCCS3(=O)=O)cn(C)c(=O)c2[nH]1", "EC50 [nM]": 8140}
{"compound": "Cc1cccc(C)c1Oc1ccc(S(C)(=O)=O)cc1-c1cn(C)c(=O)c2[nH]c(-c3nc(-c4cscn4)no3)cc12", "EC50 [nM]": 615}
{"compound": "Cc1cccc(C)c1Oc1ccc(S(C)(=O)=O)cc1-c1cn(C)c(=O)c2[nH]c(-c3nc(-c4cccnc4)no3)cc12", "EC50 [nM]": 465}
{"compound": "Cc1cccc(C)c1Oc1ccc(S(C)(=O)=O)cc1-c1cn(C)c(=O)c2[nH]c(-c3nc(-c4ccccn4)no3)cc12", "EC50 [nM]": 532}
{"compound": "Cc1noc(C2CCCN2Cc2cc3c(-c4cc(S(C)(=O)=O)ccc4Oc4ccc(F)cc4F)cn(C)c(=O)c3[nH]2)n1 (stereo not shown)", "EC50 [nM]": 827}
{"compound": "CCNC(=O)c1cc2c(-c3cc(S(=O)(=O)CC)ccc3Oc3c(C)cccc3CCc3ccccc3)cn(C)c(=O)c2[nH]1", "EC50 [nM]": 1680}
{"compound": "Cc1cccc(C)c1Oc1ccc(S(C)(=O)=O)cc1-c1cn(C)c(=O)c2[nH]c(-c3nc(C4CCOCC4)no3)cc12", "EC50 [nM]": 443}
{"compound": "CCNC(=O)c1cc2c(-c3ccc(C(=O)N(CCCN4CCOCC4)Cc4ccccc4)cc3Oc3c(C)cccc3C)cn(C)c(=O)c2[nH]1", "EC50 [nM]": 1950}
{"compound": "CCN(CC)C(C)(C)CNC(=O)c1cc2c(-c3cc(S(C)(=O)=O)ccc3Oc3c(C)cccc3C)cn(C)c(=O)c2[nH]1", "EC50 [nM]": 532}
{"compound": "CCN(CC)CCCCNC(=O)c1cc2c(-c3cc(S(C)(=O)=O)ccc3Oc3c(C)cccc3C)cn(C)c(=O)c2[nH]1", "EC50 [nM]": 498}

Now for another entry.
*Q* Which EC50 reading was recorded for the compound `CCS(=O)(=O)c1ccc(OC2CCCCC2)c(-c2cn(C)c(=O)c3[nH]c(-c4cnn(C5CCNCC5)c4)cc23)c1` ?
*A* 1.18
